Measured IC50 accompanies every entry in the list below.
- System Name: Mcl-1 protein (UniProtKB primary accession number: Q07820) (Homo sapiens, UniProt Q07820)
- Sequence (Q07820 whole entry): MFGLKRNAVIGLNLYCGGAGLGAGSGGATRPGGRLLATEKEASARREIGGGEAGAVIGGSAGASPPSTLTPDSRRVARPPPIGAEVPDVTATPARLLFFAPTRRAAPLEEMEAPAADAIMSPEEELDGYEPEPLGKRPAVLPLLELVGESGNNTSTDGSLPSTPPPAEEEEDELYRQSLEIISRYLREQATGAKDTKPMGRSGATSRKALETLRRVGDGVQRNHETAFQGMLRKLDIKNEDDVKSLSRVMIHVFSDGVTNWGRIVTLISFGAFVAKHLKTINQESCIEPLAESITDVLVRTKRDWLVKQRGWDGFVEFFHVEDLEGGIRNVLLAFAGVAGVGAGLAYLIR
- Experiment Notes: Inhibition of Mcl-1 by fluorescence polarisation, Method 1
- Type: binding
- Run Parameters: fluorescence polarisation; Method 1, or Method 2; read-out: IC50 (M) Mcl-1 FP

[
  {
    "Compound": "CCc1sc2ncnc(OC(Cc3ccccc3)C(=O)O)c2c1-c1ccc(O)cc1C (stereo not drawn) [Example 447]",
    "System Name": "Mcl-1 protein (UniProtKB primary accession number: Q07820) (Homo sapiens, UniProt Q07820)",
    "Measurement Units": "M",
    "IC50": "6.8e-08"
  },
  {
    "Compound": "Cc1c(-c2c(-c3ccc(OCc4ccn(C)n4)cc3)sc3ncnc(OC(Cc4ccccc4OCc4ccnn4CC(F)(F)F)C(=O)O)c23)ccc(OCCN2CCN(C)CC2)c1Cl (stereo not drawn)",
    "System Name": "Mcl-1 protein (UniProtKB primary accession number: Q07820) (Homo sapiens, UniProt Q07820)",
    "Measurement Units": "M",
    "IC50": "1.86e-09"
  },
  {
    "Compound": "COc1cc(F)cc(-c2sc3ncnc(OC(Cc4ccccc4OC)C(=O)O)c3c2-c2ccc(OCCN3CCN(C)CC3)c(Cl)c2C)c1 (stereo not drawn)",
    "System Name": "Mcl-1 protein (UniProtKB primary accession number: Q07820) (Homo sapiens, UniProt Q07820)",
    "Measurement Units": "M",
    "IC50": "1.6e-08"
  },
  {
    "Compound": "CCCCn1nccc1COc1ccccc1CC(Oc1ncnc2sc(-c3ccc(OCCOC)nc3)c(-c3ccc(OCCN4CCN(C)CC4)c(Cl)c3C)c12)C(=O)O (stereo not drawn)",
    "System Name": "Mcl-1 protein (UniProtKB primary accession number: Q07820) (Homo sapiens, UniProt Q07820)",
    "Measurement Units": "M",
    "IC50": "1.1e-08"
  },
  {
    "Compound": "CC#Cc1sc2ncnc(O[C@H](Cc3ccccc3OC)C(=O)O)c2c1-c1cc(F)c(OC)c(Cl)c1C (single isomer, unassigned) [Example 471]",
    "System Name": "Mcl-1 protein (UniProtKB primary accession number: Q07820) (Homo sapiens, UniProt Q07820)",
    "Measurement Units": "M",
    "IC50": "6.3e-09"
  },
  {
    "Compound": "COc1ccccc1-c1nccc(COc2ccccc2CC(Oc2ncnc3sc(-c4ccc(OCc5cccc(C)c5)cc4)c(-c4ccc(OCCN5CCN(C)CC5)c(Cl)c4C)c23)C(=O)O)n1 (stereo not drawn)",
    "System Name": "Mcl-1 protein (UniProtKB primary accession number: Q07820) (Homo sapiens, UniProt Q07820)",
    "Measurement Units": "M",
    "IC50": "1.25e-09"
  },
  {
    "Compound": "Cc1c(-c2c(-c3ccc(F)cc3)sc3ncnc(OC(Cc4ccccc4OCC(F)(F)F)C(=O)O)c23)ccc(OCCN2CCOCC2)c1Cl (stereo not drawn)",
    "System Name": "Mcl-1 protein (UniProtKB primary accession number: Q07820) (Homo sapiens, UniProt Q07820)",
    "Measurement Units": "M",
    "IC50": "2.1e-08"
  },
  {
    "Compound": "CCCCn1nccc1COc1ccccc1CC(Oc1ncnc2sc(-c3ccc(-c4ccc(Cl)nc4)nc3)c(-c3ccc(OCCN4CCN(C)CC4)c(Cl)c3C)c12)C(=O)O (stereo not drawn)",
    "System Name": "Mcl-1 protein (UniProtKB primary accession number: Q07820) (Homo sapiens, UniProt Q07820)",
    "Measurement Units": "M",
    "IC50": "8.2e-09"
  },
  {
    "Compound": "COc1ccccc1CC(Oc1ncnc2sc(-c3cc(F)cc(F)c3)c(-c3ccc(OCCN4CCN(C)CC4)c(Cl)c3C)c12)C(=O)O (stereo not drawn)",
    "System Name": "Mcl-1 protein (UniProtKB primary accession number: Q07820) (Homo sapiens, UniProt Q07820)",
    "Measurement Units": "M",
    "IC50": "7.1e-08"
  },
  {
    "Compound": "CCc1sc2ncnc(OC(Cc3cccc4c3OCO4)C(=O)O)c2c1-c1ccc(OCCN2CCN(C)CC2)c(Cl)c1C (stereo not drawn)",
    "System Name": "Mcl-1 protein (UniProtKB primary accession number: Q07820) (Homo sapiens, UniProt Q07820)",
    "Measurement Units": "M",
    "IC50": "1.3e-07"
  },
  {
    "Compound": "COCCOc1cc(-c2sc3ncnc(OC(Cc4ccccc4OCc4ccnc(OC)n4)C(=O)O)c3c2-c2ccc(OCCN3CCN(C)CC3)c(Cl)c2C)ccc1F (stereo not drawn)",
    "System Name": "Mcl-1 protein (UniProtKB primary accession number: Q07820) (Homo sapiens, UniProt Q07820)",
    "Measurement Units": "M",
    "IC50": "7.8e-09"
  },
  {
    "Compound": "CC#Cc1sc2ncnc(OC(Cc3ccccc3OCc3ccnc(OC)n3)C(=O)O)c2c1-c1ccc(OCCN2CCN(C)CC2)c(Cl)c1C (stereo not drawn)",
    "System Name": "Mcl-1 protein (UniProtKB primary accession number: Q07820) (Homo sapiens, UniProt Q07820)",
    "Measurement Units": "M",
    "IC50": "1.9e-09"
  },
  {
    "Compound": "COc1ccccc1C[C@@H](Oc1ncnc2sc(-c3ccc(F)cc3)c(-c3ccc(CCCN4CCN(C)CC4)c(Cl)c3C)c12)C(=O)O (single isomer, unassigned) [Example 654]",
    "System Name": "Mcl-1 protein (UniProtKB primary accession number: Q07820) (Homo sapiens, UniProt Q07820)",
    "Measurement Units": "M",
    "IC50": "4e-08"
  },
  {
    "Compound": "CCOC(=O)C(Cc1ccccc1OCc1ccnc(-c2ccccc2OC)n1)Oc1ncnc2sc(-c3ccc(F)cc3)c(-c3ccc(OCCN(C)C)c(Cl)c3C)c12 (stereo not drawn)",
    "System Name": "Mcl-1 protein (UniProtKB primary accession number: Q07820) (Homo sapiens, UniProt Q07820)",
    "Measurement Units": "M",
    "IC50": "6.89e-07"
  },
  {
    "Compound": "CCc1sc2ncnc(OC(Cc3ccccc3)C(=O)O)c2c1-c1cc(CN2CCN(C)CC2)c(OC)c(Cl)c1C (stereo not drawn)",
    "System Name": "Mcl-1 protein (UniProtKB primary accession number: Q07820) (Homo sapiens, UniProt Q07820)",
    "Measurement Units": "M",
    "IC50": "1.7e-07"
  },
  {
    "Compound": "COc1ccc(-c2c(-c3ccc(F)cc3)sc3ncnc(OC(Cc4ccccc4OCCN4CCN(C)CC4)C(=O)O)c23)c(C)c1Cl (stereo not drawn)",
    "System Name": "Mcl-1 protein (UniProtKB primary accession number: Q07820) (Homo sapiens, UniProt Q07820)",
    "Measurement Units": "M",
    "IC50": "1e-07"
  },
  {
    "Compound": "COc1ccccc1-c1nccc(COc2ccccc2CC(Oc2ncnc3sc(-c4ccc(OCc5ccnn5C)cc4)c(-c4ccc(OCCN5CCN(C)CC5)c(Cl)c4C)c23)C(=O)O)n1 (stereo not drawn)",
    "System Name": "Mcl-1 protein (UniProtKB primary accession number: Q07820) (Homo sapiens, UniProt Q07820)",
    "Measurement Units": "M",
    "IC50": "1.04e-09"
  },
  {
    "Compound": "COc1ccccc1CC(Oc1ncnc2sc(-c3cccc(F)c3)c(-c3ccc(OCCN4CCN(C)CC4)c(Cl)c3C)c12)C(=O)O (stereo not drawn)",
    "System Name": "Mcl-1 protein (UniProtKB primary accession number: Q07820) (Homo sapiens, UniProt Q07820)",
    "Measurement Units": "M",
    "IC50": "2.8e-08"
  },
  {
    "Compound": "COCC#Cc1sc2ncnc(OC(Cc3ccccc3OCc3ccnc(-c4ccccc4OC)n3)C(=O)O)c2c1-c1ccc(OCCN2CCN(C)CC2)c(Cl)c1C (stereo not drawn)",
    "System Name": "Mcl-1 protein (UniProtKB primary accession number: Q07820) (Homo sapiens, UniProt Q07820)",
    "Measurement Units": "M",
    "IC50": "9.48e-10"
  },
  {
    "Compound": "Cc1c(OCCN2CCN(C)CC2)ccc(-c2c(-c3ccco3)sc3ncnc(OC(Cc4ccccc4OCC(F)(F)F)C(=O)O)c23)c1C (stereo not drawn)",
    "System Name": "Mcl-1 protein (UniProtKB primary accession number: Q07820) (Homo sapiens, UniProt Q07820)",
    "Measurement Units": "M",
    "IC50": "1.1e-08"
  },
  {
    "Compound": "CCc1sc2ncnc(OC(Cc3ccccc3F)C(=O)O)c2c1-c1ccc(OCCN2CCN(C)CC2)c(Cl)c1C (stereo not drawn) [Example 463]",
    "System Name": "Mcl-1 protein (UniProtKB primary accession number: Q07820) (Homo sapiens, UniProt Q07820)",
    "Measurement Units": "M",
    "IC50": "4.6e-08"
  },
  {
    "Compound": "C=C(C)c1sc2ncnc(O[C@H](Cc3ccccc3)C(=O)O)c2c1-c1cccc(Cl)c1C (single isomer, unassigned) [Example 719]",
    "System Name": "Mcl-1 protein (UniProtKB primary accession number: Q07820) (Homo sapiens, UniProt Q07820)",
    "Measurement Units": "M",
    "IC50": "2.7e-06"
  },
  {
    "Compound": "COc1ccccc1-n1ccc(COc2ccccc2CC(Oc2ncnc3sc(-c4ccc(F)cc4)c(-c4ccc(OCCN5CCN(C)CC5)c(Cl)c4C)c23)C(=O)O)n1 (stereo not drawn)",
    "System Name": "Mcl-1 protein (UniProtKB primary accession number: Q07820) (Homo sapiens, UniProt Q07820)",
    "Measurement Units": "M",
    "IC50": "1.43e-08"
  },
  {
    "Compound": "CCc1sc2ncnc(OC(Cc3ccccc3)C(=O)O)c2c1-c1ccc(OCCn2ccnc2)c(Cl)c1C (stereo not drawn)",
    "System Name": "Mcl-1 protein (UniProtKB primary accession number: Q07820) (Homo sapiens, UniProt Q07820)",
    "Measurement Units": "M",
    "IC50": "5.6e-08"
  }
]
